- experiment: The drug is tested on Z-011 corresponding to mouse gut metagenome with ENA study accession number: PRJEB37062 and ENA sample accession number: ERS12561811 for biotransformation under anaerobic condition. The drug concentrations were measured over 9 timepoints collected between 0 and 24 hours of incubation by liquid-chromatography-coupled mass spectrometry (LC–MS); also: call rule not given here
- details: 2 µM
measuredProperty: Bacterial Biotransformation

# annotated cases, reported Bacterial Biotransformation shown
{"compound": "CCOc1cc(CC(=O)N[C@@H](CC(C)C)c2ccccc2N2CCCCC2)ccc1C(=O)O [REPAGLINIDE]", "measuredProperty": "Bacterial Biotransformation", "observedValue": "Compound NOT metabolized"}
{"compound": "CC(CCc1ccccc1)NCC(O)c1ccc(O)c(C(N)=O)c1 (stereo not drawn) [LABETALOL]", "measuredProperty": "Bacterial Biotransformation", "observedValue": "Compound NOT metabolized"}
{"compound": "CC[C@@]1(O)C(=O)OCc2c1cc1n(c2=O)Cc2cc3c(CN(C)C)c(O)ccc3nc2-1 [TOPOTECAN]", "measuredProperty": "Bacterial Biotransformation", "observedValue": "Compound NOT metabolized"}
{"compound": "CC(C)(C)N.CCC[C@H](N[C@@H](C)C(=O)N1[C@H](C(=O)O)C[C@@H]2CCCC[C@@H]21)C(=O)OCC [PERINDOPRIL ERBUMINE]", "measuredProperty": "Bacterial Biotransformation", "observedValue": "Compound NOT metabolized"}
{"compound": "CN1[C@@H]2CC[C@H]1C[C@@H](OC(=O)c1c[nH]c3ccccc13)C2 [TROPISETRON]", "measuredProperty": "Bacterial Biotransformation", "observedValue": "Compound NOT metabolized"}
{"compound": "O=C1N=C([O-])NC1(c1ccccc1)c1ccccc1.[Na+] [PHENYTOIN SODIUM]", "measuredProperty": "Bacterial Biotransformation", "observedValue": "Compound NOT metabolized"}

Looking up COc1ccc(CN2CCNCC2)c(OC)c1OC.Cl.Cl [TRIMETAZIDINE DIHYDROCHLORIDE] , I see its Bacterial Biotransformation listed as Compound NOT metabolized

----------
- experiment: The drug is tested on Z-020 corresponding to rabbit gut metagenome with ENA study accession number: PRJEB37062 and ENA sample accession number: ERS12561819 for biotransformation under anaerobic condition. The drug concentrations were measured over 9 timepoints collected between 0 and 24 hours of incubation by liquid-chromatography-coupled mass spectrometry (LC–MS)
- details: 2 µM
measuredProperty: Bacterial Biotransformation

# annotated cases, reported Bacterial Biotransformation shown
{"molecule": "C=CC[C@@H]1/C=C(\\C)C[C@H](C)C[C@H](OC)[C@H]2O[C@@](O)(C(=O)C(=O)N3CCCC[C@H]3C(=O)O[C@H](/C(C)=C/[C@@H]3CC[C@@H](O)[C@H](OC)C3)[C@H](C)[C@@H](O)CC1=O)[C@H](C)C[C@@H]2OC.O", "Bacterial Biotransformation": "Compound NOT metabolized"}
{"molecule": "CC(C)(C)N.CCC[C@H](N[C@@H](C)C(=O)N1[C@H](C(=O)O)C[C@@H]2CCCC[C@@H]21)C(=O)OCC", "Bacterial Biotransformation": "Compound metabolized"}
{"molecule": "O=C1CC2(CCCC2)CC(=O)N1CCCCN1CCN(c2ncccn2)CC1", "Bacterial Biotransformation": "Compound NOT metabolized"}
{"molecule": "Br.COc1ccc2c(c1)[C@]13CCCC[C@@H]1[C@H](C2)N(C)CC3.O [DEXTROMETHORPHAN HYDROBROMIDE]", "Bacterial Biotransformation": "Compound metabolized"}
{"molecule": "CC(C)NCC(O)COc1ccc(CC(N)=O)cc1 (stereo unspecified)", "Bacterial Biotransformation": "Compound NOT metabolized"}

Looking up CN(C)C(=O)Oc1cc(OC(=O)N(C)C)cc(C(O)CNC(C)(C)C)c1 (stereo unspecified) , I see its Bacterial Biotransformation listed as Compound NOT metabolized

----------
- experiment: The drug is tested on WLS-350 corresponding to human gut metagenome with ENA study accession number: PRJEB37062 and ENA sample accession number: ERS12561789 for biotransformation under anaerobic condition. The drug concentrations were measured over 9 timepoints collected between 0 and 24 hours of incubation by liquid-chromatography-coupled mass spectrometry (LC–MS)
- details: 2 µM
measuredProperty: Bacterial Biotransformation

# annotated cases, reported Bacterial Biotransformation shown
{"compound": "CN(C)CCOC(C)(c1ccccc1)c1ccccn1.O=C(O)CCC(=O)O (centres undefined) [DOXYLAMINE SUCCINATE]", "Bacterial Biotransformation": "Compound NOT metabolized"}
{"compound": "CNNCc1ccc(C(=O)NC(C)C)cc1", "Bacterial Biotransformation": "Compound NOT metabolized"}
{"compound": "CCN(C)C(=O)Oc1cccc([C@H](C)N(C)C)c1.O=C(O)C(O)C(O)C(=O)O [RIVASTIGMINE TARTRATE]", "Bacterial Biotransformation": "Compound NOT metabolized"}
{"compound": "CCN(CC)CCNC(=O)c1cc(S(C)(=O)=O)ccc1OC [TIAPRIDE]", "Bacterial Biotransformation": "Compound NOT metabolized"}
{"compound": "C#C[C@]1(OC(C)=O)CC[C@H]2[C@@H]3CCC4=C/C(=N/O)CC[C@@H]4[C@H]3CC[C@@]21CC [NORGESTIMATE]", "Bacterial Biotransformation": "Compound metabolized"}

Looking up COC1=C(OC)C(=O)C(CCCCCCCCCCO)=C(C)C1=O , I see its Bacterial Biotransformation listed as Compound metabolized

Looking up O=C(O)CCC(=O)O.O=C(O[C@H]1CN2CCC1CC2)N1CCc2ccccc2[C@@H]1c1ccccc1 [SOLIFENACIN SUCCINATE] , I see its Bacterial Biotransformation listed as Compound metabolized

Looking up COc1ccc(C(CN(C)C)C2(O)CCCCC2)cc1 (centres undefined) , I see its Bacterial Biotransformation listed as Compound NOT metabolized

----------
- details: human gut metagenome, 24 h, 2 µM

{"compound": "COc1cc(NC(C)CCCN)c2ncccc2c1.O=P(O)(O)O.O=P(O)(O)O (centres undefined) [PRIMAQUINE PHOSPHATE]", "Bacterial Biotransformation": "Compound metabolized"}
{"compound": "CC(C)[C@H]1CC[C@H](C(=O)N[C@H](Cc2ccccc2)C(=O)O)CC1 [NATEGLINIDE]", "Bacterial Biotransformation": "Compound metabolized"}
{"compound": "CC(C)c1nc(N(C)S(C)(=O)=O)nc(-c2ccc(F)cc2)c1/C=C/[C@@H](O)C[C@@H](O)CC(=O)[O-].CC(C)c1nc(N(C)S(C)(=O)=O)nc(-c2ccc(F)cc2)c1/C=C/[C@@H](O)C[C@@H](O)CC(=O)[O-].[Ca+2]", "Bacterial Biotransformation": "Compound metabolized"}
{"compound": "Nc1nnc(-c2cccc(Cl)c2Cl)c(N)n1", "Bacterial Biotransformation": "Compound metabolized"}

----------
- details: human gut metagenome, 24 h, 2 µM
measuredProperty: Bacterial Biotransformation

{"compound": "N#Cc1ccc2c(c1)N(CCCN1CCC(O)CC1)c1ccccc1S2", "Bacterial Biotransformation": "Compound metabolized"}
{"compound": "CCc1cccc2c3c([nH]c12)C(CC)(CC(=O)O)OCC3 (stereo not given)", "Bacterial Biotransformation": "Compound metabolized"}
{"compound": "CC(CCc1ccccc1)NCC(O)c1ccc(O)c(C(N)=O)c1 (stereo not given)", "Bacterial Biotransformation": "Compound NOT metabolized"}
{"compound": "O=C1C(CC[S+]([O-])c2ccccc2)C(=O)N(c2ccccc2)N1c1ccccc1 (stereo not given)", "Bacterial Biotransformation": "Compound metabolized"}
{"compound": "C[C@]12C=CC(=O)C=C1CC[C@@H]1[C@@H]2C(=O)C[C@@]2(C)[C@H]1CC[C@]2(O)C(=O)CO", "Bacterial Biotransformation": "Compound metabolized"}
{"compound": "CNCC[C@H](Oc1cccc2ccccc12)c1cccs1", "Bacterial Biotransformation": "Compound NOT metabolized"}
{"compound": "COc1cc2nc(N3CCN(C(=O)C4COc5ccccc5O4)CC3)nc(N)c2cc1OC.CS(=O)(=O)O (stereo not given) [DOXAZOSIN MESYLATE]", "Bacterial Biotransformation": "Compound metabolized"}
{"compound": "CN(C)C(=O)Oc1cc(OC(=O)N(C)C)cc(C(O)CNC(C)(C)C)c1 (stereo not given)", "Bacterial Biotransformation": "Compound metabolized"}

Looking up COc1ccc(CN2CCNCC2)c(OC)c1OC.Cl.Cl [TRIMETAZIDINE DIHYDROCHLORIDE] , I see its Bacterial Biotransformation listed as Compound NOT metabolized

Looking up CC(=O)Oc1ccc(C(c2ccc(OC(C)=O)cc2)c2ccccn2)cc1 , I see its Bacterial Biotransformation listed as Compound metabolized

----------
- experiment: The drug is tested on WLS-038 corresponding to human gut metagenome with ENA study accession number: PRJEB37062 and ENA sample accession number: ERS12561745 for biotransformation under anaerobic condition. The drug concentrations were measured over 9 timepoints collected between 0 and 24 hours of incubation by liquid-chromatography-coupled mass spectrometry (LC–MS)
- details: 2 µM
measuredProperty: Bacterial Biotransformation

# annotated cases, reported Bacterial Biotransformation shown
{"molecule": "CC(C)NCC(O)COc1ccc(CC(N)=O)cc1 (stereo not given)", "measuredProperty": "Bacterial Biotransformation", "observedValue": "Compound NOT metabolized"}
{"molecule": "CC1=C(CC(=O)O)c2cc(F)ccc2/C1=C\\c1ccc([S+](C)[O-])cc1 (stereo not given)", "measuredProperty": "Bacterial Biotransformation", "observedValue": "Compound metabolized"}
{"molecule": "O=C1C(CC[S+]([O-])c2ccccc2)C(=O)N(c2ccccc2)N1c1ccccc1 (stereo not given)", "measuredProperty": "Bacterial Biotransformation", "observedValue": "Compound metabolized"}
{"molecule": "CCN1CCCC1CNC(=O)c1cc(S(=O)(=O)CC)c(N)cc1OC (stereo not given) [AMISULPRIDE]", "measuredProperty": "Bacterial Biotransformation", "observedValue": "Compound NOT metabolized"}

Now look at this entry.
Looking up CN[C@H]1CC[C@@H](c2ccc(Cl)c(Cl)c2)c2ccccc21 , I see its Bacterial Biotransformation listed as Compound metabolized
